Biological target: T1, fibroblast activation protein (FAP) on FAP-expressing human WI-38 fibroblasts (human, UniProt Q12884 1-760)
T1 construct: also called human FAP
Assay: competitive FACS, WI-38 cells, vs Cy5 tracer m3; A = pIC50 >8.0
Numbered stars: 1 amine (or outer) side, 2 acyl side, 3 side chain; on linkers, the order of the positions; unused ones are H or OH. Bridge positions count the residues as written; N and C are the ends. * marks the point of attachment. TBMB(SCH2CH2NH-DOTA) = O=C(O)CN1CCN(CC(=O)O)CCN(CC(=O)NCCSCc2cc(C[*:1])cc(C[*:2])c2)CCN(CC(=O)O)CC1; Hexanoyl = CCCCCC(=O)*
Measurement type: pIC50 Category (FACS)

Data point: Hexanoyl-CPPTQFCG-OH (linker 1-7 via TBMB(SCH2CH2NH-DOTA); SMILES CCCCCC(=O)N[C@H]1CSCc2cc(CSCCNC(=O)CN3CCN(CC(=O)O)CCN(CC(=O)O)CCN(CC(=O)O)CC3)cc(c2)CSC[C@@H](C(=O)NCC(=O)O)NC(=O)[C@H](Cc2ccccc2)NC(=O)[C@H](CCC(N)=O)NC(=O)[C@H]([C@@H](C)O)NC(=O)[C@@H]2CCCN2C(=O)[C@@H]2CCCN2C1=O, also called 3BP-3656) [Hex-[Cys(tMeBn(DOTA-AET))-Pro-Pro-Thr-Gln-Phe-Cys]-Gly-OH] ; pIC50 Category (FACS) = > 8 pIC50
